target-entity: GFAT-alpha (Homo sapiens)
Sequence (Q06210 1-681 isoform Q06210-2 I57T): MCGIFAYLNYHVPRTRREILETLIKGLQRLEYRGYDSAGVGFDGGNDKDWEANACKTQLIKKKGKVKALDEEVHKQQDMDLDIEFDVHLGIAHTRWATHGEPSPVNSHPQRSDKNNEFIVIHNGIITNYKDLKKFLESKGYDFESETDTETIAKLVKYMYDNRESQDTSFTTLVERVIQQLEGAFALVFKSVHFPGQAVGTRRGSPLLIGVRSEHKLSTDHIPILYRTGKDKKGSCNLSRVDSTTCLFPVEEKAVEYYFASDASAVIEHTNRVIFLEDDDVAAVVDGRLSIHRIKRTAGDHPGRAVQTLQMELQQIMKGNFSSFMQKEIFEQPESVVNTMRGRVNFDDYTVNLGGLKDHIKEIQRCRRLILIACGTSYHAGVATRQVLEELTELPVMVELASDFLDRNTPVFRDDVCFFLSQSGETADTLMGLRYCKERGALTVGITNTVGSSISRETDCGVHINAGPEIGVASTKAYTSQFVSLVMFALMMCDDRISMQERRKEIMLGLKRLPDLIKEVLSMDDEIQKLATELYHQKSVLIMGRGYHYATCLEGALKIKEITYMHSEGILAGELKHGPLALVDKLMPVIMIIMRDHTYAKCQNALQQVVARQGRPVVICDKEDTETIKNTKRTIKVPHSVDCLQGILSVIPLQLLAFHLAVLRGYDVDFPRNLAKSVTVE
experimental-protocol: GFAT inhibition, microtiter plate glucosamine 6-phosphate assay (GFAT-alpha)
reported-conditions: enzyme expressed in SF9 insect cells; 60 minutes at 37° C.; OD 585 nm; read-out: IC50 (concentration inhibiting 50% of maximum stimulation), GFAT-alpha
attribute-measured: pIC50
Entry type: numeric. Quantity: pIC50, the -log10 of concentration in molar units.

# query: pIC50 of entry `[N-]=[N+]=CC(=O)CC[C@H](N)C(=O)O` 4.74

And for `COC(=O)/C=C/C(=O)NC[C@H](N)C(=O)O` ? 5.40

Here's the next entry for you.
# query: pIC50 of entry `N[C@@H](CNC(=O)CBr)C(=O)O` 6.42
